Before we begin, note that these IC50 values for Aurora kinase A (Homo sapiens) originate from several publications.
ENDPOINT_LABEL: IC50 (nM)

Example entries and their recorded answers appear below.
INSERT INTO measurements (compound, endpoint_label, meas_value) VALUES
  ('CC(C)CS(=O)(=O)N[C@@H]1COC2C1OC[C@H]2Nc1nc(Nc2cnn(C)c2)ncc1Cl (stereo partly shown)', 'IC50', 478),
  ('CN1C(=O)C(C)(C)c2cc(Nc3ncc(F)c(Oc4ccc(C(=O)Nc5ccccn5)cc4)n3)ccc21', 'IC50', 10.4),
  ('C=CC(=O)Nc1ccc(NS(=O)(=O)c2ccc(Nc3ncc4c(n3)N(C)c3ccc(C)cc3C(=O)N4C)cc2)cc1', 'IC50', 49);

P. O=C(Nc1ccccc1Oc1nc(Nc2ccc(N3CCOCC3)cc2)ncc1Cl)C1CC1
Q. Cn1nnc(-c2cc(CN3CCN(C(=O)c4cccc(Cl)c4F)CC3)nc(Nc3nccs3)c2)n1
-- ask Pick one, P or Q : lowest reported IC50. When you have decided, please share the label of that item.
-- reply Q
(Q: 0.32 nM, P: 36.3 nM)

P. Cn1cc(Nc2ncc(Cl)c(NC3CC4CN(S(C)(=O)=O)CC4C3)n2)cn1 (stereo not shown)
Q. Cn1cc(Nc2ncc(Cl)c(NC3CC4CN(S(=O)(=O)NC5CC5)CC4C3)n2)cn1 (stereo not shown)
-- ask Thinking about recorded IC50 values, which is higher, P or Q ? When you have decided, please share the label of that item.
-- reply P

----------
Before we begin, note that these IC50 values for Aurora kinase A (Homo sapiens, UniProt O14965) originate from several publications.
ENDPOINT_LABEL: IC50 (nM)

INSERT INTO results (molecule, meas_value) VALUES
  ('COc1cc(-c2ccc3c(c2)/C(=C/c2[nH]c4c(c2CCC(=O)O)C(=O)CCC4)C(=O)N3)ccc1O', 357);

I. Cn1cc(Nc2ncc(Cl)c(NC3CC4CN(C(=O)C5CC5)CC4C3)n2)cn1 (stereo not shown)
II. CCCn1cc(-c2n[nH]c3cc(-c4ccc(NC(=O)Nc5cccc(F)c5)cc4)ccc23)cn1
-- ask Pick one, I or II : lowest reported IC50. When you have decided, please share the label of that item.
-- reply I
(I: 21 nM, II: 10900 nM)

P. O=C(O)CCc1c(/C=C2\C(=O)Nc3ccc(NS(=O)(=O)c4cc(F)cc(F)c4)cc32)[nH]c2c1C(=O)CCC2
Q. O=C(Nc1ccccc1Nc1nc(Nc2ccc(N3CCOCC3)cc2)ncc1Cl)C1CCCCC1
-- ask Pick one, P or Q : lowest reported IC50. When you have decided, please share the label of that item.
-- reply Q

a. CS(=O)(=O)c1cccc(C(=O)N2CCN(Cc3cccc(Nc4ncc(Cl)s4)n3)CC2)c1
b. Cc1cn(C)c(C)c1-c1ccnc(Nc2ccc(N3CCOCC3)c(Cl)c2)n1
-- ask Thinking about recorded IC50 values, which is higher, a or b ? When you have decided, please share the label of that item.
-- reply b

----------
Before we begin, note that these IC50 values for Aurora kinase A (Homo sapiens, UniProt O14965) originate from several publications.

Example entries and their recorded answers appear below.
INSERT INTO assay_data (molecule, tested_on, meas_value) VALUES
  ('O=c1[nH]c2ncc(-c3cccnc3)nc2n1Cc1ccccc1', 'Aurora kinase A (Homo sapiens, UniProt O14965)', '> 1000 nM'),
  ('Cc1cc(Nc2nn(-c3ccncc3)c(=O)c3ccccc23)n[nH]1', 'Aurora kinase A (Homo sapiens, UniProt O14965)', '100 to 1000 nM'),
  ('Cc1cc(Nc2nn(C(C)C)c(=O)c3cc(CN4CCOCC4)ccc23)n[nH]1', 'Aurora kinase A (Homo sapiens, UniProt O14965)', '1 to 100 nM'),
  ('Cc1cc(Nc2nn(C(C)C)c(=O)c3ccccc23)n[nH]1', 'Aurora kinase A (Homo sapiens, UniProt O14965)', '1 to 100 nM'),
  ('COc1cc(-c2cnc3[nH]c(=O)n(Cc4cccnc4)c3n2)cc(OC)c1OC', 'Aurora kinase A (Homo sapiens, UniProt O14965)', '< 500 nM');

-- ask Recall the recorded IC50 for Cc1c2ccc(Nc3ncc(Cl)c(NC4CC5CN(C(=O)CC#N)CC5C4)n3)cc2nn1C (centres unmarked) with Aurora kinase A (Homo sapiens, UniProt O14965) and state it.
-- reply 104 nM

-- ask Recall the recorded IC50 for CC(C)(O)Cn1cc(-c2n[nH]c3cc(-c4ccc(NC(=O)Nc5cccc(F)c5)cc4)ccc23)cn1 with Aurora kinase A (Homo sapiens, UniProt O14965) and state it.
-- reply > 12500 nM

-- ask Recall the recorded IC50 for CCNCC(=O)N1CCN(c2ccc(Nc3ncc4c(n3)-n3ccc(C(=O)Nc5c(CC)nn(CCOCCOC)c5CC)c3CC4)c(OC)c2)CC1 with Aurora kinase A (Homo sapiens, UniProt O14965) and state it.
-- reply ≥ 100 nM

----------
Before we begin, note that these pIC50 values for Aurora kinase A (Homo sapiens, UniProt O14965) originate from several publications.
pIC50: −log10 of the molar value.

INSERT INTO assay_data (compound, meas_value) VALUES
  ('COc1cc(Nc2nccc(-c3c(C)c4n(c3C)CCNC4=O)n2)ccc1S(=O)(=O)N1CCN(C)CC1', '> 6.00'),
  ('Nc1ncnc2c1c(-c1cccc(OCC3CCCO3)c1F)cn2[C@H]1C[C@@H](CN2CCS(=O)(=O)CC2)C1 (mixture of isomers)', 5.15),
  ('C[C@@H]1CN(c2ccc(Nc3ncc(C(F)(F)F)c(Nc4cccc5c4C(=O)NC5)n3)c(OC(F)F)c2)CCN1', '< 6.00'),
  ('COc1ccc(-c2ccnc(Nc3cccc(O)c3)n2)cc1', 7.30),
  ('Cc1c(-c2ccnc(Nc3cccc(OC(F)(F)F)c3)n2)c(C)n2c1C(=O)NCC2', '> 5.00'),
  ('COc1ccc(Nc2nccc(-c3cccc(N(C)S(C)(=O)=O)c3)n2)cn1', 6.41),
  ('O=C1Nc2ccccc2/C1=C\c1ccc2c(/C=C/c3ccc(C(=O)O)cc3)n[nH]c2c1', '> 5.30');

Shift focus to the following entry.
-- ask Recall the recorded pIC50 for CCOC(=O)/C=C/c1n[nH]c2cc(C=C3C(=O)Nc4ncccc43)ccc12 (mixture of isomers) with Aurora kinase A (Homo sapiens, UniProt O14965) and state it.
-- reply > 5.30

----------
Before we begin, note that these IC50 values for Aurora kinase A (Homo sapiens) originate from several publications.

Example entries and their recorded answers appear below.
INSERT INTO assay_data (molecule, meas_value) VALUES
  ('FC(F)(F)c1cccc(Nc2nccc(-c3nccs3)n2)c1', '500 to 2000 nM'),
  ('Cc1cc(Nc2nc(CC3(C(=O)NC4CC4)CCN(C(=O)c4cccc(Cl)c4F)CC3)ccc2F)n[nH]1', '0.9 nM'),
  ('O=C(c1cccc(Cl)c1Cl)N1CCN(Cc2cncc(Nc3cc[nH]n3)n2)CC1', '2.5 nM'),
  ('Cc1cc(C)n(-c2ccc(Nc3nccc(-c4c(C)c5n(c4C)CCNC5=O)n3)cc2)n1', '< 1000 nM'),
  ('Fc1cccc(F)c1COc1cccc(Nc2nccc(-c3nccs3)n2)c1', '< 500 nM'),
  ('CNC(=O)Cc1ccc(Nc2nccc(-c3c(C)c4n(c3C)CCNC4=O)n2)cc1', '< 100 nM');

Shift focus to the following entry.
-- ask Recall the recorded IC50 for Cn1cc(Nc2ncc(Cl)c(N[C@H]3COC4C3OC[C@H]4NS(=O)(=O)CC(F)(F)F)n2)cn1 (stereo partly shown) with Aurora kinase A (Homo sapiens) and state it.
-- reply 1000 nM

----------
Before we begin, note that these pIC50 values for Aurora kinase A (Homo sapiens) originate from several publications.
pIC50: −log10 of the molar value.
ENDPOINT_LABEL: pIC50

INSERT INTO assay_data (compound, meas_value) VALUES
  ('O=C(Nc1ccccc1Nc1nc(Nc2ccc(C(=O)N3CCC(O)(Cc4ccccc4)CC3)cc2)ncc1Cl)C1CC1', 8.74);

P. O=C(c1ccsc1)N1CCN(Cc2cccc(Nc3ncc(Cl)s3)n2)CC1
Q. CC(C)(O)Cc1nc2cc(Nc3ncc(Cl)c(NC4CCN(c5ccc(C#N)nn5)CC4)n3)ccn2n1
R. CC(O)Cn1cc(Nc2ncc(Cl)c(NC3CC4CN(C(=O)NC5CC5)CC4C3)n2)cn1 (centres unmarked)
-- ask Please rank these compounds by pIC50 in descending order. State the ranking by listing the labels in the requested order.
-- reply P, R, Q
(P: 8.62, R: 7.72, Q: 6.16)

----------
Before we begin, note that these pIC50 values for Aurora kinase A (Homo sapiens) originate from several publications.
pIC50: −log10 of the molar value.

Example entries and their recorded answers appear below.
INSERT INTO assay_data (molecular_string, meas_value) VALUES
  ('Cc1cc(Nc2nc(Sc3ccc(NC(=O)C4CC4)cc3)nc3sc(C)cc23)n[nH]1', '≥ 7.30'),
  ('COc1cc(-c2cnc3[nH]c(=O)n([C@H](C)c4ccccc4)c3n2)cc(OC)c1OC', '< 6.00');

-- ask Recall the recorded pIC50 for O=C(c1cccc(Cl)c1Cl)N1CCN(Cc2cccc(Nc3cc[nH]n3)n2)CC1 with Aurora kinase A (Homo sapiens) and state it.
-- reply 8.92

-- ask Recall the recorded pIC50 for CC(C)Oc1cc(N2CCN(C)CC2)ccc1Nc1ncc(Cl)c(Nc2cccc3c2C(=O)NC3)n1 with Aurora kinase A (Homo sapiens) and state it.
-- reply < 6.00
